Task for the reader: assign each of the following compounds its reported kinact/KI.
# TESTED_TARGET: Caspase-8 (Homo sapiens, UniProt Q14790)
# Construct: p10 and p20 subunits (Thornberry, N. A. et al, Nature, 1992, 356, 768) were expressed in E. coli; made in house; host or cells: E. coli
# Sequence (Q14790 217-374 limits assumed, species assumed): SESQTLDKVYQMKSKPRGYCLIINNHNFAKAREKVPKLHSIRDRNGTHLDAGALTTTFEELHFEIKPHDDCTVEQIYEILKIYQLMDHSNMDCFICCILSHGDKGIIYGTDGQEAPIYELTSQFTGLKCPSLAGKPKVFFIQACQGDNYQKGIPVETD
# Sequence (Q14790 385-479 limits assumed, species assumed): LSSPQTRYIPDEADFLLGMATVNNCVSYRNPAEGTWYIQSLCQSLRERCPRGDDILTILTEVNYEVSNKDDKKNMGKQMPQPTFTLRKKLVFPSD
# METHOD_SUMMARY: Caspase inhibitory effect, fluorescent substrate AcDEVD-AFC
# Format: biochemical
# SETTINGS: pH 7.5; 2.1 nM caspase-8, 50 μM AcDEVD-AFC, 25° C., pH 7.50; read-out: Caspase-8 Kobs/[I] (converted)
# Method: Caspase-1 and caspase-8 known as cysteine proteases in the form of α2β2 were expressed, purified, and activated by modifying a method known in Thornberry, N. A. et al, Nature, 1992, 356, 768. Thornberry, N. A. Methods in Enzymology, 1994, 244, 615. […] The inhibitory constants Ki and Kobs of the inhibitors were determined by measuring the reaction velocity with the time lapse using a fluorescent spectrometer and by obtaining the initial rate constant. […]
Number in M⁻¹ s⁻¹, nothing else.

Sample "CC[C@@H](C(=O)N[C@@H](CC(=O)O)C(=O)COc1c(F)c(F)cc(F)c1F)c1ccnn(Cc2ccccc2C(C)(C)C)c1=O" — what was its kinact/KI? 63300

Next up: CCC(C(=O)NC(CC(=O)O)C(=O)CF)c1ccnn(Cc2ccccc2)c1=O (stereo not shown) 21700

Another compound to check: "CC[C@@H](C(=O)N[C@@H](CC(=O)O)C(=O)COc1c(F)ccc(F)c1F)c1ccnn(Cc2ccccc2C(C)(C)C)c1=O" 28300

Now the compound CCC(C(=O)NC(CC(=O)O)C(=O)CF)c1ccnn(Cc2ccccc2C)c1=O (stereo not shown) 20000

How about this compound: CC[C@@H](C(=O)N[C@@H](CC(=O)O)C(=O)COC(=O)c1c(Cl)cccc1Cl)c1ccnn(Cc2ccccc2C(C)(C)C)c1=O (single isomer, unassigned) 20000

What do we get for CCC(C(=O)NC(CC(=O)O)C(=O)CF)c1ccnn(Cc2ccccc2C(F)(F)F)c1=O (stereo not shown) ? 66700

Same lookup for CC[C@H](C(=O)N[C@@H](CC(=O)O)C(=O)COC(=O)c1c(Cl)cccc1Cl)c1ccnn(Cc2ccccc2C(C)(C)C)c1=O (single isomer, unassigned) , please. 933

Record: "CC[C@@H](C(=O)N[C@@H](CC(=O)O)C(=O)COc1c(F)c(F)cc(F)c1F)c1ccnn(Cc2cccc(C(C)(C)C)c2)c1=O" 26700

Next record, please: CCC(C(=O)NC(CC(=O)O)C(=O)CF)c1ccnn(Cc2cccc(C)c2)c1=O (stereo not shown) 50000

Same again, this time with CCC(C(=O)NC(CC(=O)O)C(=O)CF)c1ccnn(Cc2c(C)noc2C)c1=O (stereo not shown) 12000
